STUDY SYSTEM: ABCA1 (Mus musculus, UniProt P41233)
Sequence (P41233 whole entry): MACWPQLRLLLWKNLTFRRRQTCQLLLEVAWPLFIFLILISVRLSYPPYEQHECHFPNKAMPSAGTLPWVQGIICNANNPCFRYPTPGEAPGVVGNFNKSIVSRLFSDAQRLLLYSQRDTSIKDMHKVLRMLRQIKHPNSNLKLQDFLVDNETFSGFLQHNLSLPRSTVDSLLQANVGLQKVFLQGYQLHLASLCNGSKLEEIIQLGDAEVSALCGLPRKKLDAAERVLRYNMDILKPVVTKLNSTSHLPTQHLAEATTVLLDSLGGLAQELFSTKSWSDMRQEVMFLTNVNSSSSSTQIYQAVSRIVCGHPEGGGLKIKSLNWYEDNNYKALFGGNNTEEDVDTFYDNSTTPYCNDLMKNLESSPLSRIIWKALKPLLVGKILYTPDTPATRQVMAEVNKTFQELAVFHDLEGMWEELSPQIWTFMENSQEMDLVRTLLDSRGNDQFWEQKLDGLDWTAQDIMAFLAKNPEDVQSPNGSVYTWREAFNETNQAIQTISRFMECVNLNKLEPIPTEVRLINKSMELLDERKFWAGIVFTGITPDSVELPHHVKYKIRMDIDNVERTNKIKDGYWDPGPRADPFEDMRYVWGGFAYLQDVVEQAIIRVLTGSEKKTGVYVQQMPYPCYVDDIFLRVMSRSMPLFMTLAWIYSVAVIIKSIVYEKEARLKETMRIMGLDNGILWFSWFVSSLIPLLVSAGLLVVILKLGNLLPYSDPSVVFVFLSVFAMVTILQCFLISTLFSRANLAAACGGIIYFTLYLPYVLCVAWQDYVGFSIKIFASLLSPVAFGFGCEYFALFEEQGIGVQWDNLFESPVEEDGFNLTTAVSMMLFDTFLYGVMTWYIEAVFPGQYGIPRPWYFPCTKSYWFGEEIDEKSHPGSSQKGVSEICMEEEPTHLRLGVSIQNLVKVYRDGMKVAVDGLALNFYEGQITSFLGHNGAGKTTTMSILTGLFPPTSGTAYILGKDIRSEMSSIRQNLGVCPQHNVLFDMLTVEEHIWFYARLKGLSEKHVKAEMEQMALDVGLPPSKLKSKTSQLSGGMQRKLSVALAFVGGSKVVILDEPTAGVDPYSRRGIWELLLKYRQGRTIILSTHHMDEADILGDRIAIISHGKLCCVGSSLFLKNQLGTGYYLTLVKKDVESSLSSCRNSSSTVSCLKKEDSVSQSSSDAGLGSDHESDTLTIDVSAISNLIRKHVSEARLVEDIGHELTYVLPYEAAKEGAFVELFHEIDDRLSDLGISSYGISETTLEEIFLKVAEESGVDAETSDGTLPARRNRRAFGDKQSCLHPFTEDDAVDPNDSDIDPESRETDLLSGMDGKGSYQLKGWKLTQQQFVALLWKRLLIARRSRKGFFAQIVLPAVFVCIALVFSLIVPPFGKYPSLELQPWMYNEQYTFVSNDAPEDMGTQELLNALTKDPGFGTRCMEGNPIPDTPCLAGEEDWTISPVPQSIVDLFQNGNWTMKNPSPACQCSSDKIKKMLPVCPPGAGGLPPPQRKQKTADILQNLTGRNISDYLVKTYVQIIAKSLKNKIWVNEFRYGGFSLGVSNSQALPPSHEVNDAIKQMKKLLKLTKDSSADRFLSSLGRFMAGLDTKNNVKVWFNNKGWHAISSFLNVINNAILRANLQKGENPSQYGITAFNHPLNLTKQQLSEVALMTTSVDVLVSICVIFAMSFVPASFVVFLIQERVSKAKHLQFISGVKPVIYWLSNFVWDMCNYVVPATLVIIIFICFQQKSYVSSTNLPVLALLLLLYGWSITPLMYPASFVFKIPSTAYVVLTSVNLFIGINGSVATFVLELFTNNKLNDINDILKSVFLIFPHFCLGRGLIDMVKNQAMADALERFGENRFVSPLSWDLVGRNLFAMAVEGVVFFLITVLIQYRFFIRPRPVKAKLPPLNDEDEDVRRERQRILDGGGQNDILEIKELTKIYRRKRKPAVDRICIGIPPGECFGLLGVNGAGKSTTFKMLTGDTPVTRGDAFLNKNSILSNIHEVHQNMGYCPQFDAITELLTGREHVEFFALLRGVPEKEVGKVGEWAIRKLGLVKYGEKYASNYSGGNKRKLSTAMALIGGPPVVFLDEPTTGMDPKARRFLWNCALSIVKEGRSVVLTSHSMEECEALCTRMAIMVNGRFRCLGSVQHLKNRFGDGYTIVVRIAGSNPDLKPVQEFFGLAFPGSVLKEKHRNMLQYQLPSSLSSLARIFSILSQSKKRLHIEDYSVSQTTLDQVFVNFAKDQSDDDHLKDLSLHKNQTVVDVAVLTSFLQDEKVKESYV
ASSAY COMMENT: cell-based
DETAILS: IC50, full concentration-effect curves, Fig. 4(b); mean ± SEM of at least three independent experiments; J774A.1 cells
MEASURED QUANTITY: pIC50
Scale for pIC50: -log10 of concentration given in mol/L; no unit attached.

I would be grateful if you could share the reported pIC50 for COCCc1ccc(OCC(O)CNC(=O)C2CC(F)(F)CCC2(C)C)cc1 (stereo not drawn) .
5.06

Recorded pIC50 for `COc1ccc2c(N3C[C@H](O)[C@H](O)CC4(CCCC4)C3)ncnc2c1F` , please?
4.67

pIC50 lookup needed for `COc1cc(OC)c2cc(C(=O)N3C[C@@H](O)CC4(CCCC4)C3)[nH]c2c1OC` , thanks.
4.72
